Task for the reader: assign each of the following variants its reported protein stability index.
B1: HDAC6 (parent)
chain: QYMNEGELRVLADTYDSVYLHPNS

Variants of: B1
TEST_SUMMARY: protein stability index of a GFP-peptide fusion (GPS, HEK-293T) (PSI 1-6); higher = more stable;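 note: lentivirally expressed fusions sorted by FACS into six bins by GFP to DsRed ratio, PSI derived from sequencing read proportions per bin multiplied by bin number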
APPLIED_CONDITIONS: c terminus: a fixed tail appended

// for each variant in input: emit protein stability index
1. A12K
2. N23F
3. G6S
4. E7W
5. Y2F
6. N4I
7. E5A
8. A12L

Found:
1. 1.98
2. 1.96
3. 1.98
4. 1.72
5. 2.2
6. 2.49
7. 2.95
8. 2.58

// for each variant in input: emit protein stability index
1. D13L
2. Y19I
3. L20E
4. R9E
5. P22K
6. Y2L

Found:
1.45
1.79
2.26
2.7
1.96
2.68

// for each variant in input: emit protein stability index
1. N23H
2. V10T
3. D13K
4. L8N
5. Q1W

Found:
1.94
2.18
1.16
2.62
2.21
